Origin of the recorded values: patent US9944635B2

Test: Metabolic stability in human liver microsomes (in vitro half-life)
Type: in vitro ADME
Settings: pH 7.4, Table 3, 0.5 mg/mL HLM, 1.0 μM test compound, 2 mM NADPH, 37° C., read-out: Half-life (t½) Run No. 11
Description: Human liver microsomes (20 mg/mL) are obtained from Xenotech, LLC (Lenexa, Kans.). β-nicotinamide adenine dinucleotide phosphate, reduced form (NADPH), magnesium chloride (MgCl2), and dimethyl sulfoxide (DMSO) are purchased from Sigma-Aldrich. 7.5 mM stock solutions of test compounds were prepared in DMSO. […] Supernatants were transferred to another 96-well plate and analyzed for amounts of parent remaining by LC-MS/MS using an Applied Bio-systems API 4000 mass spectrometer. […]
EXPERIMENTAL ENDPOINT: half-life at 1 μM (min)

Worked examples follow.
* [2H]C1([2H])CC(C(=O)N2CC(=O)N3CCc4ccccc4[C@@H]3C2)CC([2H])([2H])C1([2H])[2H] | 43.2
* [2H]C1([2H])C([2H])([2H])C([2H])([2H])C([2H])(C(=O)N2CC(=O)N3CCc4ccccc4[C@@H]3C2)C([2H])([2H])C1([2H])[2H] | 50.1
* [2H]C1([2H])C(C(=O)N2CC(=O)N3CCc4ccccc4[C@@H]3C2)C([2H])([2H])C([2H])([2H])C([2H])([2H])C1([2H])[2H] | 50

[P] O=C(C1CCCCC1)N1CC(=O)N2CCc3ccccc3C2C1 (centres unmarked) [Praziquantel, reference compound]
[Q] [2H]C1([2H])CCC(C(=O)N2CC(=O)N3CCc4ccccc4[C@@H]3C2)CC1
**Query** Select the item whose half-life at 1 μM value is smaller, choosing between P and Q . Refer to your chosen item by its label in the answer.
**Result** P
(P: 35.1 min, Q: 56.3 min)

###

Experiment: Metabolic stability in human liver microsomes (in vitro half-life)
Type: in vitro ADME
Details: pH 7.4, Table 3, 0.5 mg/mL HLM, 1.0 μM test compound, 2 mM NADPH, 37° C., read-out: Half-life (t½) Run No. 9
EXPERIMENTAL ENDPOINT: half-life at 1 μM (min)

Worked examples follow.
- [2H]C1([2H])CCC(C(=O)N2CC(=O)N3CCc4ccccc4[C@@H]3C2)CC1: 48.9
- O=C(C1CCCCC1)N1CC(=O)N2CCc3ccccc3C2C1 (centres unmarked) [Praziquantel, reference compound]: 29.5
- [2H]C1([2H])C(C(=O)N2CC(=O)N3CCc4ccccc4[C@@H]3C2)C([2H])([2H])C([2H])([2H])C([2H])([2H])C1([2H])[2H]: 52.7

[a] [2H]C1([2H])CC(C(=O)N2CC(=O)N3CCc4ccccc4[C@@H]3C2)CC([2H])([2H])C1([2H])[2H]
[b] [2H]C1([2H])C([2H])([2H])C([2H])([2H])C([2H])(C(=O)N2CC(=O)N3CCc4ccccc4[C@@H]3C2)C([2H])([2H])C1([2H])[2H]
**Query** Please state the entry with greater half-life at 1 μM among a and b . Refer to your chosen item by its label in the answer.
**Result** b
(b: 57.4 min, a: 39.5 min)
